- method notes: Drug level in anesthetized Sprague-Dawley rat plasma at 5 mg/kg, iv after 3 mins
- Type: ADME, organism-based
- Set-up: dose 5 mg/kg, route intravenous
quantity measured: concentration at 0.05 h (µM)
Reply with just the number (in µM).

Worked cases, concentration at 0.05 h given:
>>> df
                            chemical_smiles  observed_measurement
0  C[C@@H]1NC(c2cc(C#N)ccn2)=N[C@@]1(c1ccc(F)cc1)c1ccc(F)nc1                   6.3
1  C[C@@H]1NC(c2cccc(S(N)(=O)=O)c2)=N[C@@]1(c1ccc(F)cc1)c1ccc(F)nc1                   4.9
2  C[C@@H]1NC(c2cnccn2)=N[C@@]1(c1ccc(F)cc1)c1ccc(F)nc1                   5.1
3  C[C@@H]1NC(c2cccc(=O)[nH]2)=N[C@@]1(c1ccc(F)cc1)c1ccc(F)nc1                   5.3
4  C[C@@H]1NC(c2ccnc(C#N)c2)=N[C@@]1(c1ccc(F)cc1)c1ccc(F)nc1                   4.3

Here is another compound to look at.
query: For "C[C@@H]1NC(c2cccc(O)n2)=NC1(c1ccc(F)cc1)c1ccc(F)cc1" , what is its reported concentration at 0.05 h?
result: 2.6

====

- method notes: Drug level in anesthetized Beagle dog plasma at 2 mg/kg, iv infused over 10 mins measured immediately after end of dosing
- Format: ADME, organism-based, Canis lupus familiaris
- Parameters: dose 2 mg/kg, route intravenous
quantity measured: concentration at 10 min (µM)
Reply with just the number (in µM).

query: For "C[C@@H]1NC(c2ccc(=O)n(C(F)F)c2)=N[C@@]1(c1ccc(F)cc1)c1ccc(F)nc1" , what is its reported concentration at 10 min?
result: 14.3

====

- method notes: AUC (0 to infinity) in rhesus monkey at 1 mg/kg, po
- Format: ADME, organism-based, Macaca mulatta
- Design: time infinity, dose 1 mg/kg, route oral
- conditions used: plasma
quantity measured: AUC(0-inf) (µM·h)
Reply with just the number (in µM·h).

query: For "C[C@@H]1NC(c2ccc(=O)n(C(F)F)c2)=N[C@@]1(c1ccc(F)cc1)c1ccc(F)nc1" , what is its reported AUC(0-inf)?
result: 11

====

- method notes: Drug level in mdr1a expressing wild type CF1 mouse plasma at 10 mg/kg, po after 2 hrs
- Assay type: ADME, organism-based
- Design: dose 10 mg/kg, route oral
quantity measured: concentration at 2 h (µM)
Reply with just the number (in µM).

query: For "C[C@@H]1NC(c2ccc(=O)n(C(F)F)c2)=N[C@@]1(c1ccc(F)cc1)c1ccc(F)nc1" , what is its reported concentration at 2 h?
result: 8.36

====

- method notes: AUC (0 to infinity) in Sprague-Dawley rat at 3 mg/kg, po
- Type: ADME, organism-based
- Design: time infinity, dose 3 mg/kg, route oral
- conditions used: plasma
quantity measured: AUC(0-inf) (µM·h)
Reply with just the number (in µM·h).

query: For "C[C@@H]1NC(c2ccc(=O)n(C(F)F)c2)=N[C@@]1(c1ccc(F)cc1)c1ccc(F)nc1" , what is its reported AUC(0-inf)?
result: 4.8

====

- method notes: Drug level in anesthetized Beagle dog plasma at 1 mg/kg, iv infused over 10 mins measured immediately after end of dosing
- Type: ADME, organism-based, Canis lupus familiaris
- Design: dose 1 mg/kg, route intravenous
quantity measured: concentration at 10 min (µM)
Reply with just the number (in µM).

query: For "C[C@@H]1NC(c2ccc(=O)n(C(F)F)c2)=N[C@@]1(c1ccc(F)cc1)c1ccc(F)nc1" , what is its reported concentration at 10 min?
result: 7.7

====

- method notes: Bioavailability in Sprague-Dawley rat at 3 mg/kg, po and 1 mg/kg, iv
- Format: ADME, organism-based
- conditions used: in vivo
quantity measured: bioavailability

query: For "C[C@@H]1NC(c2ccc(=O)n(C(F)F)c2)=N[C@@]1(c1ccc(F)cc1)c1ccc(F)nc1" , what is its reported bioavailability?
result: 92%

====

- method notes: Drug level in anesthetized Beagle dog plasma at 5 mg/kg, iv infused over 10 mins measured immediately after end of dosing
- Format: ADME, organism-based, Canis lupus familiaris
- Set-up: dose 5 mg/kg, route intravenous
quantity measured: concentration at 10 min (µM)
Reply with just the number (in µM).

query: For "C[C@@H]1NC(c2ccc(=O)n(C(F)F)c2)=N[C@@]1(c1ccc(F)cc1)c1ccc(F)nc1" , what is its reported concentration at 10 min?
result: 26.9
